System: TO-3-N3-2 (biotin conjugate)
Experiment: pull-down binding Z-score (relative to library population); higher = stronger binding
Conditions: RNA library: Library-2
Examples of sequences with documented pull-down binding Z-score follow.
Form: value (number only, do not type unit).

INSERT INTO results (chain_sequence, observed) VALUES
  ('AGCUGGCUGAAGGGCAGAAGGGAACUGUCCUUCAGCCAGAG [hsa-mir-4487]', -0.156),
  ('UGGCAAAGACAUAGAUUGUUUAGCUACCCCUUUGCCA [hsa-mir-3119-2]', -0.495),
  ('CAUGAAGUGUGAUCAUUGUGGUGAAACUUCAUG', -0.154),
  ('UCUGUUUUAAGUAACAGA [hsa-mir-7705]', -0.214),
  ('GAAGGGAAGCUGGGAACCUGACUGCCUC [hsa-mir-6867]', 0.402),
  ('UGUGACCUUCAAAAUUAUGGUGAUAGUGCAACAUUACCUAAAGGCAUAAUGAUGAAUGUCGCA', -0.486);

Please supply the value of reported pull-down binding Z-score for the item CGCCAGCUCGCUGACAGCACGACUCAGGGCG [hsa-mir-658]
0.383

Supply recorded pull-down binding Z-score for CGUGCACGUACCUGUCACAUGUGUACG [hsa-mir-3939] here.
-0.599
